Data credit: paper PMC4042160

measured-target: LRRK2 phospho-Ser935 (Homo sapiens, UniProt Q5S007)
Construct: expressed in transfected cells
Sequence (Q5S007 whole entry): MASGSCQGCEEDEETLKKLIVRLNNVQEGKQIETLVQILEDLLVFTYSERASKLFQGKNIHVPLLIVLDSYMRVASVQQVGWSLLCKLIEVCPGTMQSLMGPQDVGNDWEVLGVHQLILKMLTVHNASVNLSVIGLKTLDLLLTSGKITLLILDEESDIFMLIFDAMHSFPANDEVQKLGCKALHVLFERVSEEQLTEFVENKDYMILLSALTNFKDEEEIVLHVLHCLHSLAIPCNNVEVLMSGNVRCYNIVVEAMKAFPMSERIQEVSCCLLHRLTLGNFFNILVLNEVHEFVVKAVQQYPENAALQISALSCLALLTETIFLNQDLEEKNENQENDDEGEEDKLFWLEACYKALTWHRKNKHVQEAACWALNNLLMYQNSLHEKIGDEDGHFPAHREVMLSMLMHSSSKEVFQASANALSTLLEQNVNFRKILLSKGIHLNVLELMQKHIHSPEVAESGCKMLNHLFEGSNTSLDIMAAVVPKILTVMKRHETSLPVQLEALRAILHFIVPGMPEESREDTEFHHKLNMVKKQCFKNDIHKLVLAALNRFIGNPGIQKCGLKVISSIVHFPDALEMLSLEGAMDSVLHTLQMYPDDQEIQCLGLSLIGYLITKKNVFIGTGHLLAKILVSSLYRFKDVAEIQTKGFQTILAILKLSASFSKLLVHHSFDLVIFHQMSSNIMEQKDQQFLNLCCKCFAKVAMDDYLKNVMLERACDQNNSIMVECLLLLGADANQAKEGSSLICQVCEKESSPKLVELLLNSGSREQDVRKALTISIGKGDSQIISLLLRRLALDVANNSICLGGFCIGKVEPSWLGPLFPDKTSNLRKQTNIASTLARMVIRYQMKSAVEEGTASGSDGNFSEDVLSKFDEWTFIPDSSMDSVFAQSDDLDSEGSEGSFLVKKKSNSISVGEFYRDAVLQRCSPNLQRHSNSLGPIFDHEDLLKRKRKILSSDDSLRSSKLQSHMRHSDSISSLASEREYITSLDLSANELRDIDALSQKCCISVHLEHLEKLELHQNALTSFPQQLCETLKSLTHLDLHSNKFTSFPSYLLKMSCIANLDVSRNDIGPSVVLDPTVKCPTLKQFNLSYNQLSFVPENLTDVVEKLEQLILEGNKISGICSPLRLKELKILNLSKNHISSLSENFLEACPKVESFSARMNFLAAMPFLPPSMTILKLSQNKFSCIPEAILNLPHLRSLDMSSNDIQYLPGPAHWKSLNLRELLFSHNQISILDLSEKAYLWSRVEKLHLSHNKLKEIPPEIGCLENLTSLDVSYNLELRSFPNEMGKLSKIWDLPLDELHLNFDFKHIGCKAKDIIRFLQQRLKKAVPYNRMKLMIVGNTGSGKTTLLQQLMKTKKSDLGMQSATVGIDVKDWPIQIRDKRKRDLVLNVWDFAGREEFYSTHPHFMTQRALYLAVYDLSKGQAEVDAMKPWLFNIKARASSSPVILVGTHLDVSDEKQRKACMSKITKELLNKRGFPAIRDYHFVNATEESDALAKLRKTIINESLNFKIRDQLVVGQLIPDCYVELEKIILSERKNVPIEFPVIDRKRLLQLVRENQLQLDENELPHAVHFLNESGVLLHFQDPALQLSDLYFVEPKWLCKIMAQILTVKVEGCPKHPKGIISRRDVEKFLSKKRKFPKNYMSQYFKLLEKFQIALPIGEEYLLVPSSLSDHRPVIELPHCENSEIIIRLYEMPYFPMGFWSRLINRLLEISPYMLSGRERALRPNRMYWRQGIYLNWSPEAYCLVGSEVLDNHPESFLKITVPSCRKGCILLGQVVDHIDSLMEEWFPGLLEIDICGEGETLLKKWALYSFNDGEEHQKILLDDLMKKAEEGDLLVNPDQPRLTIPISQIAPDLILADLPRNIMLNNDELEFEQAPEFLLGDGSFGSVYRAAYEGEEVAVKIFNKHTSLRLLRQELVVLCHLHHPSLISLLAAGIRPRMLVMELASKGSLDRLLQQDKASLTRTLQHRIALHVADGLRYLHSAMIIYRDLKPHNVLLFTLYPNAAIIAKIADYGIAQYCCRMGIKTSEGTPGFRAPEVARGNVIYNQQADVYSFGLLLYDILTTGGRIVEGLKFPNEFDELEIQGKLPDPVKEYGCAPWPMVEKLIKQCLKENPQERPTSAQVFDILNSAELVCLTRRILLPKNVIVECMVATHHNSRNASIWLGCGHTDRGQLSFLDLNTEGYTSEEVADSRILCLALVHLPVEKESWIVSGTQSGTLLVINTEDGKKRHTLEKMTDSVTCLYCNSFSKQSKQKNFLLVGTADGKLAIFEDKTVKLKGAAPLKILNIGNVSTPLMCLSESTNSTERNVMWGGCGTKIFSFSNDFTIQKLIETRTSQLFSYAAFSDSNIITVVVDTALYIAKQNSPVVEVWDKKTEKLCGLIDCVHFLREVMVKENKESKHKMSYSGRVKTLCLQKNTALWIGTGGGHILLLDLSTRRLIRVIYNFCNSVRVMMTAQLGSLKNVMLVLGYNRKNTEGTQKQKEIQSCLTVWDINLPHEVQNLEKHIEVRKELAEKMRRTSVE
measurement-notes: Cellular LRRK2 phosphoserine 935 dephosphorylation spotblot assay in SH-SY5Y cells stably expressing 3xFlag-LRRK2
Type: cell-based
stated-conditions: @ 5 μM for 2 h; SH-SY5Y stably expressing LRRK2; pS935/total LRRK2
The following molecules are shown together with reported Phosphorylation level relative to solvent (%) (cellular pS935 assay) values.
readout-name: Phosphorylation level relative to solvent (%) (cellular pS935 assay)

- O=C1Cc2c([nH]c3ccc([N+](=O)[O-])cc23)-c2ccccc2N1 [Alsterpaullone]: 108.54%
- O=C1NC(=O)/C(=C/c2ccc3nccnc3c2)S1 [PI 3-Kg inhibitor]: 79.50%
- CCCC(=O)Oc1ccc2[nH]c(C(=O)c3cc4ccccc4[nH]3)cc2c1: 65.41%
- Cc1nc(-c2ccccc2)c(-c2ccncc2)o1 [SC-68376]: 104.03%
- O=C1NC(=O)c2c1c1c3ccccc3[nH]c1n1cncc21 [Isogranulatimide]: 77.38%
- Cn1c2ccccc2c2c3c(c4c5ccccc5n(CCC#N)c4c21)CNC3=O [Gö 6976]: 56.41%
- Oc1ccc(-c2nc(-c3ccncc3)c(-c3ccc(F)cc3)[nH]2)cc1 [SB 202190]: 88.12%
